Here's a batch of compounds along with measured IC50 for Influenza PB2 (Influenza A virus, UniProt P03428).

Below are worked cases with known answers.
- STRUCTURE SMILES STRING: "CCOCCOCCOCCNC(=O)[C@H]1CCC[C@H](n2ccc3cnc(-c4c[nH]c5ncc(F)cc45)nc32)C1"
  IC50: "> 100 µM"
- STRUCTURE SMILES STRING: "CCOCCOCCCCCNC(=O)N1CCC[C@H](n2ccc3cnc(-c4c[nH]c5ncc(F)cc45)nc32)C1"
  IC50: "> 100 µM"
- STRUCTURE SMILES STRING: "CCCCCOCCOCCNC(=O)N1CCC[C@H](n2ccc3cnc(-c4c[nH]c5ncc(F)cc45)nc32)C1"
  IC50: "10 to 100 µM"

In the following, a different compound is considered.
Problem: Request body: readout IC50, system Influenza PB2 (Influenza A virus, UniProt P03428), query COC(=O)[C@@H]1CCC[C@H]1n1ccc2cnc(-c3c[nH]c4ncc(F)cc34)nc21 . Return the value.
Solution: 1 to 10 µM
